Target: human FXR (Homo sapiens, UniProt Q96RI1)
Sequence (Q96RI1 262-486 limits assumed): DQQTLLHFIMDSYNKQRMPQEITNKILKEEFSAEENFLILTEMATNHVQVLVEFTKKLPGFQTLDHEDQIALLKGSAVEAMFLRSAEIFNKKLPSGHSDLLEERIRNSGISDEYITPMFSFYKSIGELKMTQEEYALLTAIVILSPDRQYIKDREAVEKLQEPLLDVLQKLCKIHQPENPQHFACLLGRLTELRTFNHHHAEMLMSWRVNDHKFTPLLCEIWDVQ
Assay: transient human FXR/Gal4-luciferase reporter assay (HLE GAL-FXR)
Settings: FXR EC50 (nM), Gal4-hFXR fusion reporter, HEK293 cells; Table 1
The molecules listed here are annotated with their EC50.
// return numeric value only (unit: nM, not printed)

Solved entries:
{"molecule": "O=C(O)c1cc2ccc(N3CCC(/C=C/c4c(-c5c(Cl)cccc5Cl)noc4C4CC4)CC3)cc2cn1", "EC50 [nM]": 17}
{"molecule": "O=C(O)c1cc(C(F)(F)F)c2cc(N3CC4C(/C=C/c5c(-c6c(Cl)cccc6Cl)noc5C5CC5)C4C3)ccc2n1 (stereo not shown)", "EC50 [nM]": 77}
{"molecule": "O=C(O)c1cc(C(F)(F)F)c2cc(N3CC4C(/C=C/c5c(-c6c(Cl)cncc6Cl)noc5C5CC5)C4C3)ccc2n1 (stereo not shown)", "EC50 [nM]": 98}
{"molecule": "O=C(O)c1cc(F)c2nc(N3CCC(/C=C/c4c(C5CC5)cnn4-c4c(Cl)cccc4Cl)CC3)sc2c1", "EC50 [nM]": 47}
{"molecule": "O=C(O)c1cnn(-c2ccc(N3CC(/C=C/c4c(-c5c(Cl)cncc5Cl)noc4C4CC4)C3)cc2)c1", "EC50 [nM]": 107}
{"molecule": "Cc1nc(C(=O)O)cc2ccc(N3CCC(/C=C/c4c(-c5ccccc5OC(F)(F)F)noc4C4CC4)CC3)cc12", "EC50 [nM]": 96}
{"molecule": "Cn1cc(C(=O)O)c(=O)c2ccc(N3CC4C(/C=C/c5c(-c6ccccc6C(F)(F)F)noc5C5CC5)C4C3)cc21 (stereo not shown)", "EC50 [nM]": 376}
{"molecule": "CC(C)Oc1cc(C(=O)O)nc2ccc(N3CCC(/C=C/c4c(-c5ccccc5OC(F)(F)F)noc4C4CC4)CC3)cc12", "EC50 [nM]": 22}

Task: Identify EC50 associated with the molecule COc1cc(C(=O)O)nc2ccc(N3CCC(/C=C/c4c(-c5ncccc5C(F)(F)F)noc4C4CC4)CC3)cc12
Output: 14

Task: Identify EC50 associated with the molecule Cn1cc(C(=O)O)c2ccc(N3CC(/C=C/c4c(-c5ccccc5C(F)(F)F)noc4C4CC4)C3)cc21
Output: 178

Task: Identify EC50 associated with the molecule O=C(O)c1cc(OC2COC2)c2cc(N3CC4C(/C=C/c5c(-c6ccccc6C(F)(F)F)noc5C5CC5)C4C3)ccc2n1 (stereo not shown)
Output: 15

Task: Identify EC50 associated with the molecule Cn1nc(N2CCC(/C=C/c3c(-c4c(Cl)cccc4Cl)noc3C3CC3)CC2)c2ncc(C(=O)O)cc21
Output: 414

Task: Identify EC50 associated with the molecule Cn1cc(C(=O)O)c2ncc(N3CC4C(/C=C/c5c(-c6ccccc6C(F)(F)F)noc5C5CC5)C4C3)cc21 (stereo not shown)
Output: 154

###

Molecular target: human FXR (Homo sapiens, UniProt Q96RI1)
Experiment: transient human FXR/Gal4-luciferase reporter assay (HLE GAL-FXR)
Settings: FXR EC50 (nM), Gal4-hFXR fusion reporter, HEK293 cells; Table 1
Entries whose EC50 is below 90 nM take t; entries at or above 90 nM take f.

Before answering, review these 4 worked examples.
{"compound": "COCCOc1cc(C(=O)O)nc2ccc(N3CC4C(/C=C/c5c(-c6c(Cl)cncc6Cl)noc5C5CC5)C4C3)cc12 (stereo not shown)", "cat": "f"}
{"compound": "CC(C)Oc1cc(C(=O)O)nc2ccc(N3CC(/C=C/c4c(-c5ccccc5C(F)(F)F)noc4C4CC4)C3)cc12", "cat": "f"}
{"compound": "O=C(O)c1cc(OC2CC2)c2cc(N3CC(/C=C/c4c(-c5ccccc5C(F)(F)F)noc4C4CC4)C3)ccc2n1", "cat": "t"}
{"compound": "O=C(O)c1ncc(N2CCC(/C=C/c3c(-c4c(Cl)cccc4Cl)noc3C3CC3)CC2)cn1", "cat": "f"}

Task: API: query returns whether the compound falls strictly under 90 nM in EC50. Query: O=C(O)c1cc(O[C@H]2C[C@H](F)C2)c2cc(N3CC4C(/C=C/c5c(-c6c(Cl)cncc6Cl)noc5C5CC5)C4C3)ccc2n1 (stereo partly shown)
Output: t

Task: API: query returns whether the compound falls strictly under 90 nM in EC50. Query: O=C(O)c1cccc2nc(N3CC4C(/C=C/c5c(-c6c(Cl)cncc6Cl)noc5C5CC5)C4C3)sc12 (stereo not shown)
Output: f

The reported numbers originate from patent US11168079B2.
